Reference for the values: patent US20210139581A1

SYSTEM_NAME: T1, human CD33 (human, UniProt P20138 18-259, limits assumed)
T1 construct: Human CD33 immobilized on the BLI sensor tip or the BIAcore C1 chip; also called Siglec-3
MEASUREMENT_PROTOCOL: SPR (BIAcore), Fab over CD33 on C1 chip
Description: The affinity parameters for 10 of the 88 humanized antibodies (AB-H1, AB-H3, AB-H6, AB-H11, AB-H22, AB-H24, AB-H26, AB-H63, AB-H64, and AB-H71) were measured in a separate experiment by a more sensitive technique, surface plasmon resonance (BIAcore), and compared to Chimeric Ab and Chimeric Ab #2. […] The Fabs were measured at 5 concentrations: a high concentration of 27 nM and 3-fold serial dilutions.
Rule: fulfilled for Fold Change to Chimeric Ab not less than 0.6 fold, not fulfilled for anything less.

# BINDER, CAT
records = [
    ("AB-H26 (antibody, V domains shown, Humanized variant of murine 2F5.1; also called AB-26) VH: QVQLVQSGAEVKKPGASVKVSCKASGYTFTDYNLHWVRQAPGQRLEWIGFIYPSNGITGYSQKFQGRATLTVDTSASTAYMELSSLRSEDTAVYYCARSTVDYFDYWGQGTTVTVSS VL: DIQMTQSPSSLSASVGDRVTITCRASQSVSTSTYSYMHWYQQKPGKAPKLLIKYASNLESGVPSRFSGSGSGTDFTLTISSLQPEDFATYYCQHSWEIPLTFGQGTKLEIK", "not fulfilled"),
    ("AB-H6 (antibody, V domains shown, Humanized variant of murine 2F5.1) VH: QVQLVQSGAEVKKPGASVKVSCKASGYTFTDYNLHWVRQAPGQGLEWMGFIYPSNGITGYAQKFQGRVTMTVDTSTSTAYMELSSLRSEDTAVYYCARSTVDYFDYWGQGTTVTVSS VL: DIQMTQSPSSLSASVGDRVTITCRASQSVSTSTYSYMHWYQQKPGKAPKLLIYYASNLESGVPSRFSGSGSGTDFTLTISSLQPEDFATYYCQHSWEIPLTFGQGTKLEIK", "fulfilled"),
    ("AB-H3 (antibody, V domains shown, Humanized variant of murine 2F5.1) VH: QVQLVQSGAEVKKPGASVKISCKASGYTFTDYNLHWVRQAPGQGLEWIGFIYPSNGITGYAQKFQGRATLTVDTSTSTAYMELSSLRSEDTAVYYCARSTVDYFDYWGQGTLLTVSS VL: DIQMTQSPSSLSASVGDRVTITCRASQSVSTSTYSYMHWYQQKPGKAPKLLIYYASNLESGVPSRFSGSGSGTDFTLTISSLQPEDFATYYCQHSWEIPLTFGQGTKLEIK", "fulfilled"),
    ("AB-H64 (antibody, V domains shown, Humanized variant of murine 2F5.1; also called parental humanized antibody) VH: QVQLVQSGAEVKKPGASVKISCKASGYTFTDYNLHWVRQAPGQGLEWIGFIYPSNGITGYAQKFQGRATLTVDNSTSTAYMELSSLRSEDTAVYYCARSTVDYFDYWGQGTLLTVSS VL: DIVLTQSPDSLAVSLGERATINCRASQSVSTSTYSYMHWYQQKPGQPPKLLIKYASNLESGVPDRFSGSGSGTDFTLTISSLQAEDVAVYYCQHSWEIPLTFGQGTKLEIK", "fulfilled"),
    ("AB-H22 (antibody, V domains shown, Humanized variant of murine 2F5.1; also called AB-22) VH: QVQLVQSGAEVKKPGASVKISCKASGYTFTDYNLHWVRQAPGQRLEWIGFIYPSNGITGYNQKFKNKATLTVDTSASTAYMELSSLRSEDTAVYYCARSTVDYFDYWGQGTTVTVSS VL: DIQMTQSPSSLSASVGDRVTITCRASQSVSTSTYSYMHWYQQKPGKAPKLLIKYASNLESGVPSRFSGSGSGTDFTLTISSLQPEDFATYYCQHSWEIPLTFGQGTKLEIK", "fulfilled"),
    ("AB-H1 (antibody, V domains shown, Humanized variant of murine 2F5.1) VH: QVQLVQSGAEVKKPGASVKVSCKASGYTFTDYNLHWVRQAPGQGLEWMGFIYPSNGITGYAQKFQGRVTMTRDTSTSTVYMELSSLRSEDTAVYYCARSTVDYFDYWGQGTLVTVSS VL: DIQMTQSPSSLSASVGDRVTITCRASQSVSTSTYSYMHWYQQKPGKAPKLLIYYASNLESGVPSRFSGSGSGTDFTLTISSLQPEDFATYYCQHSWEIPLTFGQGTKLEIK", "fulfilled"),
    ("Chimeric Ab #2 (antibody, V domains shown, Chimeric Ab with a VH-FR3 mutation that removes the predicted N-glycosylation site) VH: EVQLQQSGPELVKPGASVKISCKASGYTFTDYNLHWVKLSHGKSLEWIGFIYPSNGITGYNQKFKNKATLTVDTSSSTAYMELRSLTSEDSAVYYCARSTVDYFDYWGQGTTLTVSS VL: DIVLTQSPASLAVSLGQRATMSCRASQSVSTSTYSYMHWYQQKPGQPPKLLIKYASNLESGVPARFSGSGSGTDFTLNIHPVEEEDTATYYCQHSWEIPLTFGAGTKLELK", "not fulfilled"),
    ("AB-H63 (antibody, V domains shown, Humanized variant of murine 2F5.1) VH: QVQLVQSGAEVKKPGASVKVSCKASGYTFTDYNLHWVRQAPGQGLEWIGFIYPSNGITGYAQKFQGRVTMTVDTSTSTVYMELSSLRSEDTAVYYCARSTVDYFDYWGQGTLVTVSS VL: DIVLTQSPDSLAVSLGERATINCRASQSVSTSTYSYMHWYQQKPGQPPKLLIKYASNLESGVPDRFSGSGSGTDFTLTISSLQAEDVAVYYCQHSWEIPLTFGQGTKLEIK", "not fulfilled"),
    ("AB-H71 (antibody, V domains shown, Humanized variant of murine 2F5.1; also called AB-71) VH: QVQLVQSGAELKKPGASVKVSCKASGYTFTDYNLHWVRQAPGQRLEWIGFIYPSNGITGYSQKFQGKATLTVDTSASTAYMELSSLRSEDTAVYYCARSTVDYFDYWGQGTTVTVSS VL: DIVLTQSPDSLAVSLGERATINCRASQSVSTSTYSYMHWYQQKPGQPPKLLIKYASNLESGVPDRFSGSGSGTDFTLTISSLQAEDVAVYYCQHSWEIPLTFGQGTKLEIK", "fulfilled"),
    ("AB-H24 (antibody, V domains shown, Humanized variant of murine 2F5.1; also called AB-24) VH: QVQLVQSGAEVKKPGASVKISCKASGYTFTDYNLHWVRQAPGQRLEWIGFIYPSNGITGYSQKFQGKATLTVDTSASTAYMELSSLRSEDTAVYYCARSTVDYFDYWGQGTTVTVSS VL: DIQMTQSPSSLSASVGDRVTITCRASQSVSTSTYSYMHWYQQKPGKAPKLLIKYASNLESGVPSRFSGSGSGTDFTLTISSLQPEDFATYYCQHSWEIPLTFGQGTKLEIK", "not fulfilled"),
    ("AB-H11 (antibody, V domains shown, Humanized variant of murine 2F5.1) VH: QVQLVQSGAEVKKPGASVKVSCKASGYTFTDYNLHWVRQAPGQSLEWIGFIYPSNGITGYSQKFQGKATLTVDTSASTAYMELSSLRSEDTAVYYCARSTVDYFDYWGQGTTVTVSS VL: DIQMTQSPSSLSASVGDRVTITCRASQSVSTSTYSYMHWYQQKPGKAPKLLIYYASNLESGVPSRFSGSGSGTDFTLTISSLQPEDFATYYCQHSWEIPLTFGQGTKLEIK", "fulfilled"),
]
